Listing: MIC of selected compounds
- System: S. cerevisiae ATCC 9763
- protocol_text: Antifungal activity: MIC/MFC, disc-diffusion
- Format: cell-based, Saccharomyces cerevisiae
- condition_summary: Saccharomyces cerevisiae, ATCC9763; read-out: MIC

| compound | op | MIC, µg/mL |
| --- | --- | --- |
| C[Si]1(C)OB(O)c2ccc(SC(=O)c3ccc(C(F)(F)F)cc3)c(F)c21 [Compound 25] | = | 25 |
| C[Si]1(C)OB(O)c2ccc(SCCS(=O)(=O)c3ccccc3)c(F)c21 [Compound 21] | = | 6.25 |
| COC(=O)CCSc1ccc2c(c1F)[Si](C)(C)OB2O [Compound 4] | = | 12.5 |
| C[Si]1(C)OB(O)c2cc(F)c(SCCC(=O)N3CCOCC3)c(F)c21 [Compound 8] | > | 400 |
| C[Si]1(C)OB(O)c2cc(F)c(S(=O)(=O)Cl)c(F)c21 [Compound 26] | > | 400 |
| C[Si]1(C)OB(O)c2cc(F)c(SCCS(=O)(=O)c3ccccc3)c(F)c21 [Compound 20] | = | 400 |
| C[Si]1(C)OB(O)c2cc(F)c(SC3CC(=O)N(c4ccc(Br)c(C(F)(F)F)c4)C3=O)c(F)c21 (centres unmarked) [Compound 16] | = | 6.25 |
| Cc1cc(NC(=O)CCSc2c(F)cc3c(c2F)[Si](C)(C)OB3O)no1 [Compound 11] | > | 400 |
| C[Si]1(C)OB(O)c2cc(F)c(SCCC(=O)Nc3ncccn3)c(F)c21 [Compound 9] | > | 400 |
| C[Si]1(C)OB(O)c2ccc(SC3CC(=O)NC3=O)c(F)c21 (centres unmarked) [Compound 13] | > | 400 |
| C[Si]1(C)OB(O)c2cc(F)c(SC3CC(=O)NC3=O)c(F)c21 (centres unmarked) [Compound 12] | > | 400 |

###

# pKa annotations
- protocol_text: physchem

| structure_string | pKa |
| --- | --- |
| CC(=O)CSc1ccc2c(c1F)[Si](C)(C)OB2O | 6.4 |
| C[Si]1(C)OB(O)c2ccc(SCC(=O)c3ccccc3)c(F)c21 | 6.3 |
| CCOP(=O)(OCC)Sc1c(F)cc2c(c1F)[Si](C)(C)OB2O | 4.9 |
| C[Si]1(C)OB(O)c2cc(F)c(SCCC#N)c(F)c21 | 5.2 |

###

Recorded MIC for the following compounds
- Tested on: S. epidermidis ATCC 12228
- protocol_text: Antibacterial activity: MIC/MBC determination and disc-diffusion
- Format: cell-based
- condition_summary: Staphylococcus epidermidis, ATCC12228; S. epidermidis ATCC 12228; read-out: MIC

| structure_string | tested_on | op | MIC [µg/mL] |
| --- | --- | --- | --- |
| C[Si]1(C)OB(O)c2cc(F)c(SCCS(=O)(=O)c3ccccc3)c(F)c21 | S. epidermidis ATCC 12228 | = | 25 |
| C[Si]1(C)OB(O)c2cc(F)c(SCCC(=O)N3CCOCC3)c(F)c21 | S. epidermidis ATCC 12228 | = | 100 |
| C[Si]1(C)OB(O)c2ccc(SC(=O)c3ccc(C(F)(F)F)cc3)c(F)c21 | S. epidermidis ATCC 12228 | = | 3.12 |
| C[Si]1(C)OB(O)c2ccc(SCCS(=O)(=O)c3ccccc3)c(F)c21 | S. epidermidis ATCC 12228 | = | 25 |
| C[Si]1(C)OB(O)c2ccc(SCC(=O)c3ccccc3)c(F)c21 | S. epidermidis ATCC 12228 | = | 12.5 |
| C[Si]1(C)OB(O)c2cc(F)c(S(N)(=O)=O)c(F)c21 | S. epidermidis ATCC 12228 | > | 400 |

###

- Test system: K. pneumoniae ATCC 13883
- protocol_text: Antibacterial activity: MIC/MBC, MIC with PAβN, disc-diffusion
- Assay type: cell-based, Klebsiella pneumoniae
- condition_summary: Klebsiella pneumoniae, ATCC13883; K. pneumoniae ATCC 13883; read-out: MIC
- Experimental: […] Considering that the MDR efflux pumps often contribute to Gram-negative rod resistance, the MIC values of studied agents, with or without the pump inhibitor, PAβN (20 μg mL^−1) (Sigma), were determined.[75] The MIC was determined using Mueller–Hinton II broth medium (MHB) (Becton Dickinson) by the broth microdilution method, according to the CLSI guideliness.[53] […]
result_type: MIC

| compound | result |
| --- | --- |
| C[Si]1(C)OB(O)c2cc(F)c(SCCC(=O)Nc3ncccn3)c(F)c21 | > 400 µg/mL |
| Cc1cc(NC(=O)CCSc2c(F)cc3c(c2F)[Si](C)(C)OB3O)no1 | > 400 µg/mL |
| CC(=O)CCSc1c(F)cc2c(c1F)[Si](C)(C)OB2O | > 400 µg/mL |
| C[Si]1(C)OB(O)c2cc(F)c(SC3CC(=O)N(c4ccc(F)cc4)C3=O)c(F)c21 (centres unmarked) | > 200 µg/mL |
| CC(=O)CSc1ccc2c(c1F)[Si](C)(C)OB2O | > 400 µg/mL |

###

- System: S. cerevisiae ATCC 9763
- protocol_text: Antifungal activity: MIC/MFC, disc-diffusion
- Type: cell-based, Saccharomyces cerevisiae
- condition_summary: Saccharomyces cerevisiae, ATCC9763; read-out: MIC
result_type: MIC (µg/mL)

| compound | tested_on | result_type | output_unit | op | result_number |
| --- | --- | --- | --- | --- | --- |
| C[Si]1(C)OB(O)c2cc(F)c(S)c(F)c21 | S. cerevisiae ATCC 9763 | MIC | µg/mL | = | 200 |
| C[Si]1(C)OB(O)c2ccc(SCC(=O)c3ccccc3)c(F)c21 | S. cerevisiae ATCC 9763 | MIC | µg/mL | = | 25 |
| C[Si]1(C)OB(O)c2ccc(SC3CC(=O)N(c4ccc(F)cc4)C3=O)c(F)c21 (stereo not drawn) | S. cerevisiae ATCC 9763 | MIC | µg/mL | = | 200 |
| C[Si]1(C)OB(O)c2cc(F)c(SCCC(=O)ON3C(=O)CCC3=O)c(F)c21 | S. cerevisiae ATCC 9763 | MIC | µg/mL | > | 400 |
| CC(=O)CCSc1c(F)cc2c(c1F)[Si](C)(C)OB2O | S. cerevisiae ATCC 9763 | MIC | µg/mL | = | 400 |
| C[Si]1(C)OB(O)c2cc(F)c(SCCC(=O)Nc3cnccn3)c(F)c21 | S. cerevisiae ATCC 9763 | MIC | µg/mL | > | 400 |
| C[Si]1(C)OB(O)c2ccc(S)c(F)c21 | S. cerevisiae ATCC 9763 | MIC | µg/mL | > | 100 |
| CC(=O)CSc1ccc2c(c1F)[Si](C)(C)OB2O | S. cerevisiae ATCC 9763 | MIC | µg/mL | = | 400 |
| C[Si]1(C)OB(O)c2cc(F)c(SCCC(N)=O)c(F)c21 | S. cerevisiae ATCC 9763 | MIC | µg/mL | > | 400 |

###

- System: S. aureus NMI 664 K MRSA
- protocol_text: Antibacterial activity against clinical MRSA: MIC/MBC
- Assay type: cell-based
- condition_summary: Staphylococcus aureus; NMI 664 K MRSA; read-out: MBC (first MBC where Eagle effect)
result_type: MBC (µg/mL)

| molecule | output_unit | op | result_number |
| --- | --- | --- | --- |
| CC(=O)NC[C@H]1CN(c2ccc(N3CCOCC3)c(F)c2)C(=O)O1 [LIN, linezolid, reference compound] | µg/mL | > | 128 |
| CC(=O)CSc1ccc2c(c1F)[Si](C)(C)OB2O | µg/mL | = | 200 |
| C[Si]1(C)OB(O)c2cc(F)c(SCCS(=O)(=O)c3ccccc3)c(F)c21 | µg/mL | = | 12.5 |
| C[Si]1(C)OB(O)c2cc(F)c(SCCC#N)c(F)c21 | µg/mL | = | 25 |
| C[Si]1(C)OB(O)c2ccc(SCC(=O)c3ccccc3)c(F)c21 | µg/mL | = | 3.12 |
| C[Si]1(C)OB(O)c2ccc(SC(=O)c3ccc(C(F)(F)F)cc3)c(F)c21 | µg/mL | = | 25 |
| C[Si]1(C)OB(O)c2cc(F)c(SC3CC(=O)NC3=O)c(F)c21 (stereo not shown) | µg/mL | = | 200 |

###

- Tested on: K. pneumoniae ATCC 13883
- protocol_text: Antibacterial activity: MIC/MBC, MIC with PAβN, disc-diffusion
- Type: cell-based, Klebsiella pneumoniae
- condition_summary: Klebsiella pneumoniae, ATCC13883; K. pneumoniae ATCC 13883; read-out: MIC

| compound | MIC |
| --- | --- |
| C[Si]1(C)OB(O)c2cc(F)c(SCCC(=O)ON3C(=O)CCC3=O)c(F)c21 | > 400 µg/mL |
| C[Si]1(C)OB(O)c2cc(F)c(S(=O)(=O)Cl)c(F)c21 | > 400 µg/mL |
| O=C1CN(/N=C/c2ccc([N+](=O)[O-])o2)C(=O)N1 [NF, nitrofurantoin, reference compound] | 32 µg/mL |
| C[Si]1(C)OB(O)c2ccc(SC3CC(=O)N(c4ccc(Br)c(C(F)(F)F)c4)C3=O)c(F)c21 (centres unmarked) | > 200 µg/mL |
| C[Si]1(C)OB(O)c2cc(F)c(S(=O)(=O)Nc3ccc(F)cc3)c(F)c21 | > 400 µg/mL |
| C[Si]1(C)OB(O)c2ccc(SC(=O)c3ccc(C(F)(F)F)cc3)c(F)c21 | > 50 µg/mL |
| C[Si]1(C)OB(O)c2cc(F)c(SCCC#N)c(F)c21 | > 400 µg/mL |
| C[Si]1(C)OB(O)c2ccc(SC3CC(=O)N(c4ccc(F)cc4)C3=O)c(F)c21 (centres unmarked) | > 200 µg/mL |
